test system: SW 900; experiment: relative viability (nuclei count vs DMSO), 5 days (fraction); higher = more cells survive; details: first compound 0.8 µM
Value Type: relative viability
Reply with the value as a number alone.

Use the examples below as a reference point.
>  <Molecule>
CCCCCCCCCCCC1=C(O)C(=O)C=C(O)C1=O [Embelin] + Nc1ncn([C@H]2C[C@H](O)[C@@H](CO)O2)c(=O)n1 [Decitabine] (partner 2 µM)

>  <Reported>
0.402

$$$$
>  <Molecule>
CCCCCCCCCCCC1=C(O)C(=O)C=C(O)C1=O [Embelin] + Nc1nc2[nH]cc(CCc3ccc(C(=O)N[C@@H](CCC(=O)O)C(=O)O)cc3)c2c(=O)[nH]1 [Pemetrexed] (partner 0.2 µM)

>  <Reported>
0.527

$$$$
>  <Molecule>
CCCCCCCCCCCC1=C(O)C(=O)C=C(O)C1=O [Embelin] + COc1cccc2cc(-c3nc([C@H]4CC[C@H](C(=O)O)CC4)n4ncnc(N)c34)[nH]c12 [OSI-027] (partner 0.5 µM)

>  <Reported>
0.541

$$$$
>  <Molecule>
CCCCCCCCCCCC1=C(O)C(=O)C=C(O)C1=O [Embelin] + N=C(N)NC(=N)NCCc1ccccc1 [Phenformin] (partner 250 µM)

>  <Reported>
0.733

$$$$
>  <Molecule>
CCCCCCCCCCCC1=C(O)C(=O)C=C(O)C1=O [Embelin] + NC(=O)Nc1cc(-c2cccc(F)c2)sc1C(=O)N[C@H]1CCCNC1 [AZD7762] (partner 0.2 µM)

>  <Reported>
0.624

$$$$

relative viability in this record for CCCCCCCCCCCC1=C(O)C(=O)C=C(O)C1=O [Embelin] + Cc1cc(Nc2cc(N3CCN(C)CC3)nc(Sc3ccc(NC(=O)C4CC4)cc3)n2)n[nH]1 [Tozasertib] (partner 0.1 µM) : 0.672
